Target: soluble human FGFR2b protein (his tag, in-house generated) (human) (UniProt P21802)
Sequence (P21802 other isoform, or with tags, fused parts or gaps limits assumed): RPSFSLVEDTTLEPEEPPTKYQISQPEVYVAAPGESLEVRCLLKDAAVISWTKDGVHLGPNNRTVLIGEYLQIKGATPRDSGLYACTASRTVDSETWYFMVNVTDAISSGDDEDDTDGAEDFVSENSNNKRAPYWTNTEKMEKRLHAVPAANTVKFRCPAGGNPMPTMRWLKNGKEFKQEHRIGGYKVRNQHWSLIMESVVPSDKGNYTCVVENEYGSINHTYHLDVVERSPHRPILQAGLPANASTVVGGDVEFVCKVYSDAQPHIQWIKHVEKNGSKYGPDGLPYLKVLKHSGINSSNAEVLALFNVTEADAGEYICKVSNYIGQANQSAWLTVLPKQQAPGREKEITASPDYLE
Assay: SPR, antibody captured by anti-human Fc, human FGFR2b
Could you please report measured kon for the items listed next?
Numbers only, in M⁻¹ s⁻¹.

binder="BGAm1823 (antibody, V domains shown) VH: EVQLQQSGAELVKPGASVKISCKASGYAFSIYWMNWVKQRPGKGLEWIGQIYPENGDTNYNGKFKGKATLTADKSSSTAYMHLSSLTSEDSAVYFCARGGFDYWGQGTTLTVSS VL: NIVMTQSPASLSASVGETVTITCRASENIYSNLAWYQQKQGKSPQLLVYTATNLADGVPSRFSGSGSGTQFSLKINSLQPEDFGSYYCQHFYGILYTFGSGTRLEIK" test_result=76300

Provide kon values for the following items, in order.
1. BGAh9179 (antibody, human IgG1, kappa, V domains shown) VH: QVQLVQSGAEVKKPGASVKVSCKASGYTITDTYIHWVRQAPGQGLEWMGRIDPAEGNTMFASEFQGRVTMTADTSTSTVYMELSSLRSEDTAVYYCARSKIHYDYDEGFAYWGQGTLVTVSS VL: DIVLTQSPDSLAVSLGERATINCRASESVDDYGYSFLHWYQQKPGQPPKLLIYRASNLESGVPDRFSGSGSGTDFTLTISSLQAEDVAVYYCQQSNQNPRTFGGGTKVEIKR
2. BGAm1371 (antibody, V domains shown) VH: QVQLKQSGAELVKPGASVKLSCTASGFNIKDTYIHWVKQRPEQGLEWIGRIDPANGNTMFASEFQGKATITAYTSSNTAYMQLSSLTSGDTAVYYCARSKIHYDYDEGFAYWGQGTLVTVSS VL: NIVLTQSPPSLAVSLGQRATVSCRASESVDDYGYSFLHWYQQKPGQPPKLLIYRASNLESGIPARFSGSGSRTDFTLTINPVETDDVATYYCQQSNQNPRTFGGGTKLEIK

A)
[81600, 72900]
